Where do these numbers come from? They come from patent US7199143B2.

Target: UniProt P21397
Sequence (P21397 1-527): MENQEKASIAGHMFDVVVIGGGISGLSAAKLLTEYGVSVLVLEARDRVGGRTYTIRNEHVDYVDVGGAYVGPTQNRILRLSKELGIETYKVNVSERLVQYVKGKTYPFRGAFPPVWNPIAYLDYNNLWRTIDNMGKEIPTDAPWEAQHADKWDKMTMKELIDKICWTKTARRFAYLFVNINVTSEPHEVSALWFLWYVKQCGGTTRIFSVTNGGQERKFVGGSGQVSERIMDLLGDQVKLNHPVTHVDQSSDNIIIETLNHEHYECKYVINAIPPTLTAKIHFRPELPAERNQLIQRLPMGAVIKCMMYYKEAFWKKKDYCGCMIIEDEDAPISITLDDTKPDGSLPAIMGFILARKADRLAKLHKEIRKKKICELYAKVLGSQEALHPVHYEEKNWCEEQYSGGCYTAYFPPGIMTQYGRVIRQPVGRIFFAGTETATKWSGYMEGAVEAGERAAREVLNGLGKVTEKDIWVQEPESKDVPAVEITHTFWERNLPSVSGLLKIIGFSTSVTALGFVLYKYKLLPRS
result-type: Ki

Query: If you can, please state the reported Ki value of [N-]=[N+]=NCc1cn(C[C@H]2CN(c3ccc(C4=CC[S+]([O-])CC4)c(F)c3)C(=O)O2)nn1 (stereo partly shown) .
Result: > 410 µM
